Hello, the source for this data is patent US20050228180A1, in case you need it.

Where a name gives a salt, the structure may show the parent alone.
The reader will find log10(Ki) measurements below, all made with α1A adrenoceptor (Rattus norvegicus).
Sequence (P43140 whole entry): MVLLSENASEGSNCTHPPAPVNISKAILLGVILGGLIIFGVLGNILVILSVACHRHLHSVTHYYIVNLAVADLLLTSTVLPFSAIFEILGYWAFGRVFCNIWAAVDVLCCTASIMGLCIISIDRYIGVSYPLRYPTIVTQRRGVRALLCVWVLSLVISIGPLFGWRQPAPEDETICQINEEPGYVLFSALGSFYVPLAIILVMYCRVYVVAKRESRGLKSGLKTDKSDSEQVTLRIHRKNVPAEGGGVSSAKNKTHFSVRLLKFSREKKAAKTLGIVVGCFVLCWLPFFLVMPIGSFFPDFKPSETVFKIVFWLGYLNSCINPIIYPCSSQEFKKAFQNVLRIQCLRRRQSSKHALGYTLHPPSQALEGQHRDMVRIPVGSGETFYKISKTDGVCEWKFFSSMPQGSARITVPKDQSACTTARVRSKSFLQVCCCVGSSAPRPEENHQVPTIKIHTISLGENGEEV
Note the log scale: values are log10 of Ki expressed in nM.

MOLECULE	RESULT NUMBER
CC(C)Oc1ccccc1N1CCN(CCCN2C(=O)C3CC(O)C(Cl)CC3C2=O)CC1.Cl (stereo not shown) [Compound No. 28, hydrochloride]	-0.62
CC(C)Oc1c(O)cccc1N1CCN(CCCN2C(=O)C3CC=CCC3C2=O)CC1 (stereo not shown) [Compound No. 35, hydrochloride]	1.58
CCOc1ccccc1N1CCN(CCCN2C(=O)C3CC(O)C(O)CC3C2=O)CC1 (stereo not shown) [Compound No. 66, hydrochloride]	0.72
Cl.O=C1C2CCC(O)CC2C(=O)N1CCCN1CCN(c2ccccc2OCC(F)(F)F)CC1 (stereo not shown) [Compound No. 33, hydrochloride]	-0.62
Cl.O=C1CCCC(=O)N1CC(O)CN1CCN(c2ccccc2O)CC1 (stereo not shown) [Compound No. 44, hydrochloride]	2.77

Give measured log10(Ki) for every item shown.
1. CC(C)Oc1ccccc1N1CCN(CC(O)CN2C(=O)CCCC2=O)CC1.Cl (stereo not shown) [Compound No. 29, hydrochloride]
2. O=C1C2CC=CCC2C(=O)N1CCC[N+]1([O-])CCN(c2ccccc2O)CC1 (stereo not shown)
3. O=C1C2CC=CCC2C(=O)N1CCCN1CCN(c2ccccc2-c2ccccc2)CC1 (stereo not shown) [Compound No. 45, hydrochloride]
4. CCOc1ccccc1N1CCN(CCCN2C(=O)C3CC(O)C(Cl)CC3C2=O)CC1.Cl (stereo not shown) [Compound No. 17, hydrochloride]
5. O=C1CCCC(=O)N1CCC[N+]1([O-])CCN(c2ccccc2O)CC1
6. CCOc1ccccc1N1CCN(CCCN2C(=O)C3CC(O)C(O)CC3C2=O)CC1 (stereo not shown) [Compound No. 12]
7. CC(C)Oc1ccc(O)cc1N1CCN(CCCN2C(=O)CCCC2=O)CC1 [Compound No. 36, hydrochloride]

Response:
1: 0.45; 2: 3.20; 3: 0.93; 4: 0.20; 5: 3.83; 6: 0.23; 7: 1.04

List the reported log10(Ki) of each molecule below.
1. CC(C)Oc1ccccc1N1CCN(CCCN2C(=O)[C@@H]3[C@H](C2=O)[C@H]2C=C[C@@H]3O2)CC1 [Compound No. 61, hydrochloride]
2. CC(C)Oc1cccc(O)c1N1CCN(CCCN2C(=O)CCCC2=O)CC1 [Compound No. 37, hydrochloride]
3. COc1ccccc1N1CCN(CCCN2C(=O)C3C(c4ccccc4)C=CC(c4ccccc4)C3C2=O)CC1.Cl (stereo not shown) [Compound No. 78, hydrochloride]
4. CC(C)Oc1ccccc1N1CCN(CCCN2C(=O)C3CC=CC(O)C3C2=O)CC1.Cl (stereo not shown) [Compound No. 41, hydrochloride]
5. COC1=C(OC)CC2C(=O)N(CCCN3CCN(c4ccccc4OC(C)C)CC3)C(=O)C2C1 (stereo not shown) [Compound No. 75, hydrochloride]
6. Cl.O=C1C2CC=CCC2C(=O)N1CCN1CCN(c2ccccc2OCC(F)(F)F)CC1 (stereo not shown) [Compound No. 16, hydrochloride]
7. CC(=O)N(CCNCCCN1C(=O)C2CC=CCC2C1=O)c1ccccc1OC(C)C.Cl (stereo not shown) [Compound No. 47, hydrochloride]

Response:
1. -0.03
2. 2.66
3. 2.51
4. -0.52
5. 0.36
6. 1.28
7. 2.48
